# System: Erysiphe graminis
# assay_notes: Powdery mildew of barley, systemic root uptake (BMS)
# Type: in vivo
# experimental_setup: 45 ml of 250 mg/l, 8 days after inoculation
Please assign Not fulfilled whenever Percent Reduction of Disease, BMS is at or above 40%, and Fulfilled whenever it is below.

Look over these answered cases.
molecule: CCCCOc1ccc(CCC(C#N)(CC(C)C)c2cccnc2)cc1 (centres unmarked)
category: Fulfilled

molecule: CCCCCC(C#N)(CCc1ccccc1)c1cccnc1 (centres unmarked)
category: Fulfilled

molecule: COc1ccc(CCC(C#N)(CC2CC2)c2cccnc2)cc1 (centres unmarked)
category: Fulfilled

molecule: CC(C)CC(C#N)(CCc1ccc(F)cc1)c1cccnc1 (centres unmarked)
category: Fulfilled

molecule: CCCC(C#N)(CCc1ccc(OCC)cc1)c1cccnc1 (centres unmarked)
category: Fulfilled

**Q:** Would you kindly verify if Percent Reduction of Disease, BMS of CCCC(C#N)(CCc1ccccc1F)c1cccnc1 (centres unmarked) is strictly less than 40%?
**A:** Not fulfilled

**Q:** Lab note: Percent Reduction of Disease, BMS threshold 40%. Does this molecule come in strictly under it? N#CC(CCc1ccccc1)(CCc1ccccc1)c1cccnc1 [A, reference compound]
**A:** Fulfilled

###

# Test system: Cercosporidium personatum
# assay_notes: Fungal germination and growth, treated disc on agar, scored (CER PER)
# Assay type: cell-based
# Design: key: 100: Complete inhibition of germination and growth.; 80: Nearly complete inhibition but some growth.; 50: Partial inhibition of growth or, early complete inhibition but later growth begins.; 20: Some inhibition of growth, but not significant.; 0: No inhibition of growth
# experimental_setup: disc dipped in 500 mg/l, 29° C., numerical score 0-100, spore suspension
property_label: CER PER inhibition score

Here's what some known entries look like.
compound: CCCCOc1ccc(CCC(C#N)(CC(C)C)c2cccnc2)cc1 (stereo not drawn) [Compound 58]
CER PER inhibition score: 0

compound: COc1ccc(CCC(C#N)(CC=C(C)C)c2cccnc2)cc1 (stereo not drawn) [Compound 48]
CER PER inhibition score: 50

compound: COc1ccc(CCC(C#N)(CC(C)C)c2ccccn2)cc1 (stereo not drawn) [Compound 29]
CER PER inhibition score: 100

compound: CC(C)CCC(C#N)(CCc1ccc(F)cc1)c1cccnc1 (stereo not drawn) [Compound 55]
CER PER inhibition score: 0

compound: N#CC(CCc1ccc(F)cc1)(CCC(F)(F)F)c1cccnc1 (stereo not drawn) [Compound 77]
CER PER inhibition score: 0

**Q:** CER PER inhibition score for CCCCC(C#N)(CCc1ccc(OCCF)cc1)c1cccnc1 (stereo not drawn) [Compound 68] ?
**A:** 100

**Q:** Fill in the blank: the reported CER PER inhibition score of C#CCC(C#N)(CCc1ccc(F)cc1)c1cccnc1 (stereo not drawn) [Compound 41] is ____.
**A:** 0

**Q:** I'd like to know its CER PER inhibition score. The compound in question is COc1ccc(CCC(C#N)(CC2CC2)c2cccnc2)cc1 (stereo not drawn) [Compound 37]
**A:** 0

**Q:** May I ask what CER PER inhibition score has been recorded for CCCCCC(CCc1ccc(F)cc1)(C(N)=O)c1cccnc1 (stereo not drawn) [Compound 62] ?
**A:** 0

###

# Test system: Helminthosporium sativum
# assay_notes: Barley spot blotch, foliar treatment (HEL SAT)
# Type: in vivo
# experimental_setup: Helminthosporium, foliar, 216 h, foliar, 1,000 mg/l, read-out: Percent Reduction of Disease, HEL SAT
pest or weed control at 1000 µg/mL values, listed per item

**Q:** Which pest or weed control at 1000 µg/mL value belongs to CCCCC(C#N)(CCc1ccc(C)cc1)c1cccnc1 (stereo not drawn) ?
**A:** 100%

**Q:** Need pest or weed control at 1000 µg/mL of C=CCC(C#N)(CCc1ccc(F)cc1)c1cccnc1 (stereo not drawn) , thanks.
**A:** 85%

**Q:** Can you share its pest or weed control at 1000 µg/mL? I mean this compound: C=C(Cl)CC(C#N)(CCc1ccc(F)cc1)c1cccnc1 (stereo not drawn)
**A:** 100%
